biological target: T1, GEM (also listed as SEQ ID NOs 82, 106, 130, 141) peptide on HLA-A*11:01 (human); assay: cytokine release
T1 peptide: AVFGAGGVGK
readout.name: binding result

TCR 2 (TCR, V domains shown) Valpha: AQTVTQSQPEMSVQEAETVTLSCTYDTSENNYYLFWYKQPPSRQMILVIRQEAYKQQNATENRFSVNFQKAAKSFSLKISDSQLGDTAMYFCAFMYPSQGGSEKLVFGKGMKLTVNP Vbeta: ETGVTQSPTHLIKTRGQQVTLRCSSQSGHNTVSWYQQALGQGPQFIFQYYREEENGRGNFPPRFSGLQFPNYSSELNVNALELDDSALYLCASSSPGFRSYGYTFGSGTRLTVV :: no recognition
TCR 1 (TCR, V domains shown) Valpha: GDSVTQMEGPVTLSEEAFLTINCTYTATGYPSLFWYVQYPGEGLQLLLKATKADDKGSNKGFEATYRKETTSFHLEKGSVQVSDSAVYFCALSDRVGGARLMFGDGTQLVVKP Vbeta: EADIYQTPRYLVIGTGKKITLECSQTMGHDKMYWYQQDPGMELHLIHYSYGVNSTEKGDLSSESTVSRIRTEHFPLTLESARPSHTSQYLCASSEGLYNEQFFGPGTRLTVL :: no recognition

Sourced from patent US20240091361A1
